- TARGET OR TEST SYSTEM: recombinant human His-tagged MDM2 protein (residues 1-118) (Homo sapiens (Human))
- Sequence (Q00987 1-118): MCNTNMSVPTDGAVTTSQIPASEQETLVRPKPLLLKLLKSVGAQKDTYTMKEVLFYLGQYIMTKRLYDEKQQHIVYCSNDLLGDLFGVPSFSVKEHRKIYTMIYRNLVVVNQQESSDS
- METHOD: Fluorescence-polarization MDM2 binding assay;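 note: fluorescence polarization read after three hours of incubation in potassium phosphate buffer containing bovine gamma globulin and Triton X-100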
- CONDITION DETAILS: Table 19B; read-out: Binding affinities to MDM2 protein as determined by FP based assay IC50
pIC50: −log10 of the molar value.
Give measured pIC50 for each item. Keep answers brief.

Query block: Suppose we examine the compound "CC(C)CC(C)(C)C[C@H]1N(C)[C@@H](C(=O)NCC[C@H](O)CO)[C@H](c2cccc(Cl)c2F)[C@@]12C(=O)Nc1cc(F)c(F)cc12" ; what pIC50 value has been reported?
Result block: < 5.30

Query block: Suppose we examine the compound "CC(C)CC[C@H]1N[C@@H](C(=O)NCC[C@H](O)CO)[C@H](c2cccc(Cl)c2)[C@@]12C(=O)Nc1cc(Cl)c(F)cc12" ; what pIC50 value has been reported?
Result block: > 5.00

Query block: Suppose we examine the compound "CCCCC(C)(C)C[C@H]1N(C)[C@@H](C(=O)NCC[C@H](O)CO)[C@H](c2cccc(Cl)c2)[C@@]12C(=O)Nc1cc(Cl)c(F)cc12" ; what pIC50 value has been reported?
Result block: > 5.30

Query block: Suppose we examine the compound "O=C(NCC[C@H](O)CO)[C@@H]1N[C@H](CCC2CCCC2)[C@]2(C(=O)Nc3cc(Cl)c(F)cc32)[C@H]1c1cccc(Cl)c1" ; what pIC50 value has been reported?
Result block: > 5.52

Query block: Suppose we examine the compound "CN1[C@@H](C(=O)NCC[C@H](O)CO)[C@H](c2cccc(Cl)c2)[C@@]2(C(=O)Nc3cc(Cl)c(F)cc32)[C@H]1CCCc1cccs1" ; what pIC50 value has been reported?
Result block: < 5.30

Query block: Suppose we examine the compound CC(C)(C)C[C@H]1N[C@@H](C(=O)NCCC2CCC(O)C2)[C@H](c2cccc(Cl)c2F)[C@@]12C(=O)Nc1cc(Cl)ccc12 (stereo partly drawn) ; what pIC50 value has been reported?
Result block: > 6.00

Query block: Suppose we examine the compound "O=C(NCC[C@H](O)CO)[C@@H]1N[C@H](CCc2ccsc2)[C@]2(C(=O)Nc3cc(Cl)c(F)cc32)[C@H]1c1cccc(Cl)c1" ; what pIC50 value has been reported?
Result block: > 5.30

Query block: Suppose we examine the compound "CC(C)CC(C)(C)C[C@H]1N[C@@H](C(=O)NCCN2CCOCC2)[C@H](c2cccc(Cl)c2F)[C@@]12C(=O)Nc1cc(F)c(F)cc12" ; what pIC50 value has been reported?
Result block: > 6.00

Query block: Suppose we examine the compound "CC(C)CC(C)(C)C[C@H]1N[C@@H](C(=O)NCC[C@H](O)CO)[C@H](c2ccc(F)c(Cl)c2)[C@@]12C(=O)Nc1cc(F)c(F)cc12" ; what pIC50 value has been reported?
Result block: > 6.00

Query block: Suppose we examine the compound "CCCCC(C)(C)C[C@H]1N[C@@H](C(=O)NCC[C@H](O)CO)[C@H](c2cccc(Cl)c2)[C@@]12C(=O)Nc1cc(Cl)c(F)cc12" ; what pIC50 value has been reported?
Result block: > 6.00

Query block: Suppose we examine the compound O=C(NCC[C@H](O)CO)[C@@H]1N[C@H](CC2CCCCC2)[C@]2(C(=O)Nc3cc(Cl)c(F)cc32)[C@H]1c1cccc(Cl)c1 [MI-716A] ; what pIC50 value has been reported?
Result block: > 5.52

Query block: Suppose we examine the compound "CC(C)CC(C)(C)C[C@H]1N[C@@H](C(=O)NCC[C@H](O)CO)[C@H](c2cccc(Cl)c2F)[C@@]12C(=O)Nc1cc(F)c(F)cc12" ; what pIC50 value has been reported?
Result block: > 6.00
